Species on record: Rattus norvegicus
Experiment: DrugMatrix - Regimen: Daily Repeat
Type: toxicity, organism-based, Sprague-Dawley
Set-up: regimen Daily Repeat, gender Male, age 6-8 weeks
Conditions: in vivo, po, 0 mg/kg, 72 h, tissue Blood, route oral GAVAGE, dose level Control, time 3 day, vehicle 100 % SALINE

| molecule | HEMATOCRIT, % |
| --- | --- |
| O=[As][O-].[Na+] [SODIUM ARSENITE] | 37.17 |
| CCO [ALCOHOL] | 37.17 |
| Cc1ccnc2c1NC(=O)c1cccnc1N2C1CC1 [NEVIRAPINE] | 36.08 |
| CCN(CC)N=O [N-NITROSODIETHYLAMINE] | 31.8 |
| CC(CN1c2ccccc2Sc2ccccc21)N(C)C (stereo not given) [PROMETHAZINE] | 34.28 |

---

// values below are reported CHLORIDE
Species on record: Rattus norvegicus
Assay: DrugMatrix - Regimen: Daily Repeat
Type: toxicity, organism-based, Sprague-Dawley
Set-up: regimen Daily Repeat, gender Male, age 6-8 weeks
Conditions: in vivo, po, 0 mg/kg, 72 h, tissue Plasma, route oral GAVAGE, dose level Control, time 3 day, […]

| compound | CHLORIDE, MEQ/L |
| --- | --- |
| CS(=O)(=O)c1ccc(C2=C(c3ccccc3)C(=O)OC2)cc1 | 99.17 |
| CO[C@H]1O[C@@H]2O[C@@]3(C)CC[C@H]4[C@H](C)CC[C@@H]([C@H]1C)[C@@]24OO3 | 100.83 |
| O=C(O)COC(=O)Cc1ccccc1Nc1c(Cl)cccc1Cl | 98.33 |
| O=C(Nc1ccc(Cl)c(Cl)c1)c1cc(Cl)cc(Cl)c1O [3,3',4',5-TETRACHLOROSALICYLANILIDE] | 101 |

---

Organism: Rattus norvegicus
Assay: DrugMatrix - Regimen: Daily Repeat
Format: toxicity, organism-based, Sprague-Dawley
Design: regimen Daily Repeat, gender Male, age 6-8 weeks
Conditions: in vivo, po, 0 mg/kg, 72 h, tissue Plasma, route oral GAVAGE, dose level Control, time 3 day, […]
compounds and their reported CARBON DIOXIDE

| compound | CARBON DIOXIDE (mmol/L) |
| --- | --- |
| O=C(Nc1ccc(Cl)c(Cl)c1)c1cc(Cl)cc(Cl)c1O [3,3',4',5-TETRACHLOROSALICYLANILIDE] | 29.33 |
| Oc1ncnc2[nH]ncc12 [ALLOPURINOL] | 27.83 |
| CC(C)(c1ccc(O)cc1)c1ccc(O)cc1 [BISPHENOL A] | 31.17 |
| CC#C[C@]1(O)CC[C@H]2[C@@H]3CCC4=CC(=O)CCC4=C3[C@@H](c3ccc(N(C)C)cc3)C[C@@]21C [MIFEPRISTONE] | 30 |
| COc1ccccc1OCCNCC(O)COc1cccc2[nH]c3ccccc3c12 (stereo not drawn) [CARVEDILOL] | 34.17 |
| CO[C@H]1O[C@@H]2O[C@@]3(C)CC[C@H]4[C@H](C)CC[C@@H]([C@H]1C)[C@@]24OO3 | 28.17 |
| CS(=O)(=O)c1ccc(C2=C(c3ccccc3)C(=O)OC2)cc1 [ROFECOXIB] | 33 |
| O=C(O)COC(=O)Cc1ccccc1Nc1c(Cl)cccc1Cl [ACECLOFENAC] | 34.17 |
| CCC(C)(C)C(=O)O[C@H]1C[C@@H](C)C=C2C=C[C@H](C)[C@H](CC[C@@H]3C[C@@H](O)CC(=O)O3)[C@H]21 [SIMVASTATIN] | 30 |
| CCOC(=O)C1=C(C)NC(C)=C(C(=O)OCC)C1c1ccccc1/C=C/C(=O)OC(C)(C)C [LACIDIPINE] | 27.5 |
| Cc1cccc(C)c1NC(=O)C(C)N (stereo not drawn) [TOCAINIDE] | 34.33 |
| COC(=O)Nc1nc2ccc(C(=O)c3ccccc3)cc2[nH]1 [MEBENDAZOLE] | 34.17 |
| c1ccc2c(c1)Nc1ccccc1S2 [PHENOTHIAZINE] | 33 |

---

Species: Rattus norvegicus
Test: DrugMatrix - Regimen: Daily Repeat
Format: toxicity, organism-based, Sprague-Dawley
Parameters: regimen Daily Repeat, gender Male, age 6-8 weeks
Details: in vivo, po, 0 mg/kg, 120 h, tissue Plasma, route oral GAVAGE, dose level Control, time 5 day, vehicle .5 % CMC
Documented LACTATE DEHYDROGENASE across a set of molecules

| molecule | LACTATE DEHYDROGENASE |
| --- | --- |
| COc1cc(/C=C/C(=O)O)ccc1O [FERULATE] | 259.67 u/L |
| NCC(CC(=O)O)c1ccc(Cl)cc1 (stereo not given) [BACLOFEN] | 517.33 u/L |
| CCOc1cc(N)c(Cl)cc1C(=O)NCC1CN(Cc2ccc(F)cc2)CCO1 (stereo not given) [MOSAPRIDE] | 517.33 u/L |
| O=C(O)CCc1nc(-c2ccccc2)c(-c2ccccc2)o1 [OXAPROZIN] | 153.67 u/L |
| Cc1cc2c(s1)Nc1ccccc1N=C2N1CCN(C)CC1 [OLANZAPINE] | 322 u/L |

---

Species: Rattus norvegicus
Experiment: DrugMatrix - Regimen: Daily Repeat
Assay type: toxicity, organism-based, Sprague-Dawley
Set-up: regimen Daily Repeat, gender Male, age 6-8 weeks
Conditions: in vivo, po, 0 mg/kg, 72 h, tissue Plasma, route oral GAVAGE, dose level Control, time 3 day, vehicle .5 % CMC
TOTAL PROTEIN under 6 G/DL gets T, anything at or over 6 G/DL gets F.

| compound | discrete.label |
| --- | --- |
| CCN1C[C@]2(COC)[C@H](O)C[C@H](OC)[C@@]34[C@@H]5C[C@@]6(O)[C@H](OC(=O)c7ccccc7)[C@@H]5[C@@](OC(C)=O)([C@@H]([C@H](OC)[C@H]23)[C@@H]14)[C@@H](O)[C@@H]6OC | F |
| CC(C)Cc1ccc([C@H](C)C(=O)O)cc1 | F |
| O=C(O)CCc1nc(-c2ccccc2)c(-c2ccccc2)o1 | T |
| CN(C)CCC=C1c2ccccc2COc2ccccc21 [DOXEPIN] | F |
| CC(C)NCC(O)COc1ccc(CC(N)=O)cc1 (stereo not drawn) | F |

---

Organism: Rattus norvegicus
Assay: DrugMatrix - Regimen: Daily Repeat
Type: toxicity, organism-based, Sprague-Dawley
Parameters: regimen Daily Repeat, gender Male, age 6-8 weeks
Conditions: in vivo, po, 0 mg/kg, 120 h, tissue Blood, route oral GAVAGE, dose level Control, time 5 day, vehicle 100 % WATER

| compound | ABSOLUTE EOSINOPHIL, CELLS/uL |
| --- | --- |
| CCC1(c2ccccc2)C(=O)NC(=O)NC1=O [PHENOBARBITAL] | 31.17 |
| Cc1cc(C(C)(C)C)c(O)c(C)c1CC1=NCCN1 [OXYMETAZOLINE] | 125 |
| NN [HYDRAZINE] | 22.83 |
| Cc1cn([C@H]2C=C[C@@H](CO)O2)c(=O)[nH]c1=O [STAVUDINE] | 14.5 |
| CCN(CC)C(=S)SSC(=S)N(CC)CC | 19.33 |
| CC(Cl)(Cl)Cl [TRICHLOROETHANE] | 26.67 |
| C[N+](C)(C)CCOC(N)=O.[Cl-] [CARBACHOL] | 14.5 |
| C1CCN2C[C@@H]3C[C@@H](CN4CCCC[C@@H]34)[C@H]2C1 [SPARTEINE] | 26.67 |

---

Organism: Rattus norvegicus
Assay: DrugMatrix - Regimen: Daily Repeat
Format: toxicity, organism-based, Sprague-Dawley
Design: regimen Daily Repeat, gender Male, age 6-8 weeks
Conditions: in vivo, po, 0 mg/kg, 72 h, tissue Plasma, route oral GAVAGE, dose level Control, time 3 day, vehicle .5 % CMC
Entries and their GLUCOSE values follow.
parameter.measured: GLUCOSE (mg/dL)

| compound | measure.unit | recorded.measurement |
| --- | --- | --- |
| NC(=O)NC(=O)Cc1ccccc1 [PHENACEMIDE] | mg/dL | 158 |
| CCOc1cc(N)c(Cl)cc1C(=O)NCC1CN(Cc2ccc(F)cc2)CCO1 (stereo not drawn) [MOSAPRIDE] | mg/dL | 151.67 |
| CCN(CC)CCNC(=O)c1cc(Cl)c(N)cc1OC [METOCLOPRAMIDE] | mg/dL | 172.5 |

---

Organism: Rattus norvegicus
Test: DrugMatrix - Regimen: Daily Repeat
Type: toxicity, organism-based, Sprague-Dawley
Parameters: regimen Daily Repeat, gender Male, age 6-8 weeks
Details: in vivo, po, 0 mg/kg, 72 h, tissue Blood, route oral GAVAGE, dose level Control, time 3 day, vehicle .5 % CMC
Recorded MEAN CORPUSCULAR HEMOGLOBIN by entry

| molecule | MEAN CORPUSCULAR HEMOGLOBIN, pg |
| --- | --- |
| CN(C)CCOC(c1ccccc1)c1ccccc1.Cn1c(=O)c2[nH]c(Cl)nc2n(C)c1=O [DIMENHYDRINATE] | 25.38 |
| NCC(CC(=O)O)c1ccc(Cl)cc1 (stereo not given) | 24.6 |
| O=C1c2ccccc2C(=O)C1c1ccccc1 | 19.72 |
| O=C(O)CCc1nc(-c2ccccc2)c(-c2ccccc2)o1 | 24.67 |
| CCN(CC)CCNC(=O)c1cc(Cl)c(N)cc1OC [METOCLOPRAMIDE] | 21.9 |
